Biological target: human GPBAR1 (Homo sapiens, UniProt Q8TDU6)
Sequence (Q8TDU6 whole entry): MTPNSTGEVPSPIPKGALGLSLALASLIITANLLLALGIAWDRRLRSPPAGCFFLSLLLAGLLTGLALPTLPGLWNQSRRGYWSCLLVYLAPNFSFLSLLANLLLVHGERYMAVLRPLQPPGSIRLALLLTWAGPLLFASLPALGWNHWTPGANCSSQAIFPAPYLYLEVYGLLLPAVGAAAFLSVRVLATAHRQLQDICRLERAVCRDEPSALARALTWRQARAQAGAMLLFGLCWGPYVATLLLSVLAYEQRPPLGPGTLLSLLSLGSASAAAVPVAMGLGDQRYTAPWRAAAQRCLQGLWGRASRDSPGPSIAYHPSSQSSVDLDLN
Test: GPBAR1 mediated transactivation, CRE-luciferase reporter in transfected HEK-293T cells
Conditions: HEK-293T CRE-luciferase transactivation
attribute_measured: pEC50
# log scale: pEC50 equals minus log10 of the concentration in mol/L

Dear colleague, I am looking for the recorded pEC50 of the following compound: C[C@H](CC#N)[C@H]1CC[C@H]2[C@@H]3C[C@@](C)(O)[C@@H]4C[C@H](O)CC[C@]4(C)[C@H]3CC[C@]12C [PBT109A] 6.24

Need pEC50, item C=CCCC[C@]1(O)C[C@H]2[C@@H]3CC[C@H]([C@H](C)CC#N)[C@@]3(C)CC[C@@H]2[C@@]2(C)CC[C@@H](O)C[C@@H]12 6.11

Which pEC50 reading was recorded for the compound CC(C)[C@]1(O)C[C@@H]2[C@H](CC[C@]3(C)[C@@H]([C@H](C)CC#N)CC[C@@H]23)[C@@]2(C)CC[C@@H](O)C[C@H]21 ? 5.56

Return reported pEC50; argument: CCC[C@]1(O)C[C@H]2[C@@H]3CC[C@H]([C@H](C)CC#N)[C@@]3(C)CC[C@@H]2[C@@]2(C)CC[C@@H](O)C[C@@H]12 5.92
